Numbers sourced from the supplement of paper PMC12350171.

# Tested on: Shigella flexneri
# TEST PROTOCOL: growth AUC normalised to DMSO control (fraction of control); higher = less growth inhibition, active = hit call of the paper
# PARTICULARS: 20 µM
Where a name gives a salt, the structure may show the parent alone.
REPORTED METRIC: growth AUC normalised to DMSO control

Observe how each entry below is paired with its result.
CNNCc1ccc(C(=O)NC(C)C)cc1 [Procarbazine hydrochloride]
1.02 (inactive)
NCc1ccc(S(N)(=O)=O)cc1 [Mafenide hydrochloride]
0.998 (inactive)
CC(=O)Oc1ccccc1C(=O)O [Acetylsalicylic acid]
1.04 (inactive)

For the 5 molecules below, give their growth AUC normalised to DMSO control values.
1. COc1ccc(C(Cl)=C(c2ccc(OC)cc2)c2ccc(OC)cc2)cc1 [Chlorotrianisene]
2. CC/C(=C(\c1ccccc1)c1ccc(OCCN(C)C)cc1)c1ccccc1 [Tamoxifen citrate]
3. CC(C)(Oc1ccc(Cl)cc1)C(=O)O [Clofibric acid]
4. NC[C@@H]1O[C@H](O[C@H]2[C@@H](O)[C@H](O[C@@H]3[C@@H](O)[C@H](N)C[C@H](N)[C@H]3O[C@H]3O[C@H](CO)[C@@H](O)[C@H](O)[C@H]3N)O[C@@H]2CO)[C@H](N)[C@@H](O)[C@@H]1O [Paromomycin sulfate]
5. CS(=O)(=O)c1ccc([C@@H](O)[C@@H](CO)NC(=O)C(Cl)Cl)cc1 [Thiamphenicol]

0.944 (inactive)
1.01 (inactive)
1 (inactive)
0.993 (inactive)
0.0249 (active)

Items follow; give growth AUC normalised to DMSO control for each.
1. O=C(O)c1cccnc1 [Niacin]
2. Clc1ccc2c(c1)C(N1CCNCC1)=Nc1ccccc1O2 [Amoxapine]
3. CN[C@@H]1[C@H](O[C@H]2[C@H](O[C@H]3[C@H](O)[C@@H](O)[C@H](NC(=N)N)[C@@H](O)[C@@H]3NC(=N)N)O[C@@H](C)[C@]2(O)CO)O[C@@H](CO)[C@H](O)[C@H]1O [Dihydrostreptomycin sulfate]
4. CO[C@H]1/C=C/O[C@@]2(C)Oc3c(C)c(O)c4c(O)c(c(/C=N/N5CCN(C)CC5)c(O)c4c3C2=O)NC(=O)/C(C)=C\C=C\[C@H](C)[C@H](O)[C@@H](C)[C@@H](O)[C@@H](C)[C@H](OC(C)=O)[C@@H]1C [Rifampicin]
5. Nc1nc2c(ncn2COCCO)c(=O)[nH]1 [Acyclovir]
6. CC1CCc2cc(F)cc3c(=O)c(C(=O)O)cn1c23 (stereo unspecified) [Flumequine]

1.02 (inactive)
1.01 (inactive)
1.01 (inactive)
0.118 (active)
1.01 (inactive)
0.0348 (active)

Dear colleague, could you send me growth AUC normalised to DMSO control for each of the items below? Thanks.
1. CCCCC(CC)CNC(=N)NC(=N)NCCCCCCNC(=N)NC(=N)NCC(CC)CCCC (stereo unspecified) [Alexidine dihydrochloride]
2. C[C@]12CC[C@H]3C(=CCc4cc(O)ccc43)[C@@H]1CCC2=O [Equilin]

0.833 (active)
0.993 (inactive)

----------
I'd appreciate it if you could supply growth AUC normalised to DMSO control values for the items below.
# Tested on: S. enterica typhimurium WT;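 note: active when median AUC fell below 0.1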
# TEST PROTOCOL: growth AUC normalised to DMSO control (median) (fraction of control); higher = less growth inhibition, active = hit call of the paper
# PARTICULARS: 20 µM
Structures can show the parent of a compound that is named as a salt.
Give bare numbers.

Each molecule below has a reported value. Please supply its growth AUC normalised to DMSO control.
1. NCc1ccccc1CC(=O)N[C@@H]1C(=O)N2C(C(=O)O)=C(CSc3nnnn3CC(=O)O)CS[C@H]12 [Ceforanide]
2. CCOC(=O)c1ccc(C#Cc2ccc3c(c2)C(C)(C)CCS3)nc1
3. Cc1cc(-c2ccccc2)nnc1NCCN1CCOCC1 [Minaprine dihydrochloride]

0.00887
1
1

Below is a list of molecules. For each, state its recorded growth AUC normalised to DMSO control.
1. CCCCc1cc2ccccc2c(OCCN(C)C)n1 [Dimethisoquin hydrochloride]
2. CCC1(c2ccccc2)NC(=O)N(C)C1=O (configuration not stated)
3. CCN(CC)C(=O)c1cccnc1 [Nikethamide]
4. CC(C)(C)C(=O)OCOC(=O)[C@@H]1N2C(=O)[C@@H](/N=C/N3CCCCCC3)[C@H]2SC1(C)C [Pivmecillinam hydrochloride]

0.997
1
1
0.158

Your task in this section: give growth AUC normalised to DMSO control for each listed record.
1. C[C@]12CC[C@@H]3c4ccc(O)cc4CC[C@H]3[C@@H]1C[C@@H](O)[C@@H]2O
2. CN1CCN(C2=Nc3ccccc3Oc3ccc(Cl)cc32)CC1 [Loxapine succinate]
3. COc1ccc(-c2noc(CC(=O)O)c2-c2ccc(OC)cc2)cc1
4. N=C(N)c1ccc(OCCCCCOc2ccc(C(=N)N)cc2)cc1 [Pentamidine isethionate]
5. O=c1[nH]c(=O)n(C2CCCO2)cc1F (configuration not stated)

1: 1; 2: 1.01; 3: 1.01; 4: 0.999; 5: 1

For every listed record, write down its growth AUC normalised to DMSO control.
1. NC[C@@H]1O[C@@H](O[C@H]2[C@H](O)[C@@H](O[C@H]3O[C@H](CO)[C@@H](O)[C@H](N)[C@H]3O)[C@H](N)C[C@@H]2N)[C@@H](O)[C@H](O)[C@H]1O [Kanamycin A sulfate]
2. C=C1[C@H](CO)[C@@H](O)C[C@@H]1n1cnc2c(=O)[nH]c(N)nc21

1. 1.01
2. 0.999

----------
Kindly state growth AUC normalised to DMSO control for each of the entries shown.
# System: S. enterica typhimurium WT;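 note: active when median AUC fell below 0.1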
# TEST PROTOCOL: growth AUC normalised to DMSO control (median) (fraction of control); higher = less growth inhibition, active = hit call of the paper
# PARTICULARS: 20 µM
Counter-ions that a name gives are not always drawn.
Numbers only.

Batch request: growth AUC normalised to DMSO control per item, same order as input.
1. Cc1oncc1C(=O)Nc1ccc(C(F)(F)F)cc1 [Leflunomide]
2. Cc1ccc(S(=O)(=O)NC(=O)NN2CC3CCCC3C2)cc1 (stereo not given) [Gliclazide]
3. CNCC[C@@H](Oc1cccc2ccccc12)c1cccs1 [(R)-Duloxetine hydrochloride]
4. N#Cc1cc(NC(=O)C(=O)O)c(Cl)c(NC(=O)C(=O)O)c1 [Lodoxamide]
5. CC(C)[C@H]1CC[C@H](C(=O)N[C@H](Cc2ccccc2)C(=O)O)CC1 [Nateglinide]
6. COc1ccc(C(=O)CC(=O)c2ccc(C(C)(C)C)cc2)cc1 [Avobenzone]
7. CC1(C)OC(=O)NC1=O [Dimethadione]

0.996
1
0.999
1
0.994
0.992
0.99

Give growth AUC normalised to DMSO control for each of the items listed below.
1. CC(=O)Nc1cccc(O)c1 [Metacetamol]
2. Cc1ccc(=O)n(-c2ccccc2)c1 [Pirfenidone]
3. O=c1cc(-c2ccc(O)c(O)c2)oc2cc(O)cc(O)c12 [Luteolin]

1. 1
2. 1
3. 0.993

----------
So I've got a bunch of compounds here, and I need their growth AUC normalised to DMSO control values.
# System: Salmonella enterica typhimurium
# TEST PROTOCOL: growth AUC normalised to DMSO control (fraction of control); higher = less growth inhibition, active = hit call of the paper
# PARTICULARS: 20 µM
Structures can show the parent of a compound that is named as a salt.
Answers are plain numbers.

Solved cases (3 shown):
CCCCOc1cc(C(=O)NCCN(CC)CC)c2ccccc2n1
1
CCc1cccc(CC)c1NC(=O)CN(CC(=O)O)CC(=O)O
0.985
CC(C)NCC(O)COc1ccc(COCCOC(C)C)cc1 (centres undefined) [Bisoprolol hemifumarate]
1.03

Batch: growth AUC normalised to DMSO control for all items listed.
1. Nc1ccc(S(=O)(=O)c2ccc(N)cc2)cc1
2. CNCCC(Oc1ccccc1OC)c1ccccc1 (centres undefined) [Nisoxetine hydrochloride]
3. O=C1Nc2ccc(Cl)cc2[C@@](C#CC2CC2)(C(F)(F)F)O1
4. CC(=O)N1CCN(c2ccc(OCC3COC(Cn4ccnc4)(c4ccc(Cl)cc4Cl)O3)cc2)CC1 (centres undefined)

1: 0.982; 2: 0.949; 3: 0.997; 4: 1.01

Would you be so kind as to report growth AUC normalised to DMSO control for each listed record?
1. CN1CC2c3ccccc3Oc3ccc(Cl)cc3C2C1 (centres undefined) [Asenapine maleate]
2. COc1ccc([C@@H]2CC(=O)c3c(O)cc(O[C@@H]4O[C@H](CO[C@@H]5O[C@@H](C)[C@H](O)[C@@H](O)[C@H]5O)[C@@H](O)[C@H](O)[C@H]4O)cc3O2)cc1O
3. CCOC(=O)[N-]c1c[n+](N2CCOCC2)no1
4. C#C[C@]1(OC(C)=O)CC[C@H]2[C@@H]3CCC4=C[C@@H](OC(C)=O)CC[C@@H]4[C@H]3CC[C@@]21C [Ethynodiol diacetate]
5. CC(=C(CCO)SSCC1CCCO1)N(C=O)Cc1cnc(C)nc1N (stereo in doubt) [Fursultiamine hydrochloride]

1. 0.954
2. 1.03
3. 1.02
4. 0.971
5. 1.01

Hello, I would appreciate it if you could give growth AUC normalised to DMSO control for each entry below.
1. CCOc1ccc2ccccc2c1C(=O)N[C@@H]1C(=O)N2[C@@H]1SC(C)(C)[C@@H]2C(=O)O [Nafcillin sodium salt monohydrate]
2. OCCN1C[C@H](O)[C@@H](O)[C@H](O)[C@H]1CO
3. NC(=O)c1ncn([C@@H]2O[C@H](CO)[C@@H](O)[C@H]2O)n1
4. C[C@@H]1C[C@H]2[C@@H]3C[C@H](F)C4=CC(=O)C=C[C@]4(C)[C@@]3(F)[C@@H](O)C[C@]2(C)[C@@]1(O)C(=O)CO
5. CCCc1nc2c(C)cc(-c3nc4ccccc4n3C)cc2n1Cc1ccc(-c2ccccc2C(=O)O)cc1
6. COC(=O)C1=C(C)NC(C)=C(C(=O)OC)C1c1ccccc1[N+](=O)[O-]
7. NCCc1ccc(O)c(O)c1 [Dopamine hydrochloride]
8. CCC(=O)O[C@@H](O[P@](=O)(CCCCc1ccccc1)CC(=O)N1C[C@H](C2CCCCC2)C[C@H]1C(=O)O)C(C)C

0.981
0.991
0.995
0.995
1
1
1.02
1

Please state, for each entry, its recorded growth AUC normalised to DMSO control.
1. O=C(CCCCC(=O)Nc1c(I)cc(I)c(C(=O)O)c1I)Nc1c(I)cc(I)c(C(=O)O)c1I [Iodipamide]
2. COC(=O)Nc1nc2ccc(SC(C)C)cc2[nH]1
3. O=C(O)c1cccnc1Nc1cccc(C(F)(F)F)c1
4. CCN(CCO)CCCC(C)Nc1ccnc2cc(Cl)ccc12 (centres undefined) [Hydroxychloroquine sulfate]
5. C#C[C@]1(O)CC[C@H]2[C@@H]3CCc4cc(OC)ccc4[C@H]3CC[C@@]21C

0.986
1.01
0.989
1
0.987
